Test system: U2OS
Assay: Incucyte cell viability with U2OS; note: unitless GR value; below 1 slowed growth and below 0 cell loss
Assay type: toxicity, cell-based
Conditions: human, 18 h, 10 µM, compound concentration 10 uM, replicate number 1
property.label: Growth Rate
Answers are plain numbers.

CCCC(=O)C1CCN(c2ncnc3c2CN(C(=O)c2ccc(-c4ccccc4)cc2)CC3)CC1: 0.81
Cc1c(NC(=O)COc2ccc(Cl)cc2C(=O)c2cc(F)cc(C(F)(F)F)c2)ccc(C(=O)O)c1F [BI 2540]: 0.91
C[C@H](CCC(=O)O)[C@H]1CC[C@H]2[C@@H]3CC[C@@H]4C[C@H](O)CC[C@]4(C)[C@H]3C[C@H](O)[C@]12C [DEOXYCHOLIC ACID]: 0.88

Continue with the molecule presented below.
Growth Rate in this record for CS(=O)(=O)NC(=O)CCC/C=C\C[C@H]1C(=O)C[C@@H](O)[C@@H]1/C=C/[C@@H](O)COc1ccccc1 [SULPROSTONE] : 0.83

====

Task for the reader: assign each of the following compounds its reported Growth Rate.
System: HEK-293T
Experiment: Incucyte cell viability with HEK293T; note: unitless GR value; below 1 slowed growth and below 0 cell loss
Type: toxicity, cell-based
Details: human, 24 h, 10 µM, compound concentration 10 uM, replicate number 1
Give bare numbers.

Solved cases (3 shown):
O=C(O)C[C@H]1CCn2c1c(Sc1ccc(Cl)cc1)c1ccc(F)cc12: 0.92
CN1C(=O)Cc2ccc(-c3ccc(C[C@@H](C#N)NC(=O)[C@@H]4N[C@H]5CC[C@@H]4C5)c(F)c3)cc21: 0.28
COc1c(OCCCN2CCOCC2)ccc2c1N=C(NC(=O)c1cnc(N)nc1)N1CCN=C21: 0.18

Would you mind listing Growth Rate for each of the following compounds?
1. Cc1nccn1-c1ccc(Sc2cccc(C3(C(N)=O)CCOCC3)c2)cc1
2. COc1cc(-c2cc([C@H](O)C3CC3)n3ncnc(N)c23)ccc1CO

Result:
0.4
0.74

====

System: U2OS
Test: Incucyte cell viability with U2OS; note: unitless GR value; below 1 slowed growth and below 0 cell loss
Type: toxicity, cell-based
Conditions: human, 18 h, 10 µM, compound concentration 10 uM, replicate number 2
Rule: Growth Rate under 0.8 gives Not met, otherwise Met.

Example entries begin here.
C=C1/C(=C\C=C2/CCC[C@]3(C)[C@@H]([C@H](C)CCCC(C)(C)O)CC[C@@H]23)C[C@@H](O)C[C@@H]1O: Not met
Cc1cc2nc(N3CCC(C(=O)NC4CCCC4)CC3)n(C(C)C)c2cc1C: Not met
NC(=O)c1ccc2[nH]c(-c3ccc(Oc4ccc(Cl)cc4)cc3)nc2c1: Met
CC(=O)N1CCN([C@H]2CCC[C@@H](NC(=O)c3cc4c(F)ccc(C)c4[nH]3)C2)CC1.O=C(O)C(F)(F)F: Met
CC(C)C(=O)N[C@@H]1CCN(C(=O)Nc2nc3c(s2)-c2nc(-c4ccccc4Cl)ncc2CC3)C1: Not met

Task: Has N#C/C(=C\c1ccc(O)c(O)c1)C(=O)OCCc1cccs1 a recorded Growth Rate greater than or equal to 0.8?
Result: Met

Task: Hi team, for CN[C@@H](C)C(=O)N[C@H](C(=O)N1CCC[C@H]1C(=O)N[C@H]1c2ccccc2C[C@H]1OCC#CC#CCO[C@@H]1Cc2ccccc2[C@@H]1NC(=O)[C@@H]1CCCN1C(=O)[C@@H](NC(=O)[C@H](C)NC)C1CCCCC1)C1CCCCC1 , is the recorded Growth Rate at or above 0.8?
Result: Met
